Kindly state Potency for each of the entries shown.
# target_or_system: Serine/threonine-protein kinase PLK1 (Homo sapiens) (UniProt P53350)
# Sequence (P53350 whole entry, looked up, the tested form may be a part): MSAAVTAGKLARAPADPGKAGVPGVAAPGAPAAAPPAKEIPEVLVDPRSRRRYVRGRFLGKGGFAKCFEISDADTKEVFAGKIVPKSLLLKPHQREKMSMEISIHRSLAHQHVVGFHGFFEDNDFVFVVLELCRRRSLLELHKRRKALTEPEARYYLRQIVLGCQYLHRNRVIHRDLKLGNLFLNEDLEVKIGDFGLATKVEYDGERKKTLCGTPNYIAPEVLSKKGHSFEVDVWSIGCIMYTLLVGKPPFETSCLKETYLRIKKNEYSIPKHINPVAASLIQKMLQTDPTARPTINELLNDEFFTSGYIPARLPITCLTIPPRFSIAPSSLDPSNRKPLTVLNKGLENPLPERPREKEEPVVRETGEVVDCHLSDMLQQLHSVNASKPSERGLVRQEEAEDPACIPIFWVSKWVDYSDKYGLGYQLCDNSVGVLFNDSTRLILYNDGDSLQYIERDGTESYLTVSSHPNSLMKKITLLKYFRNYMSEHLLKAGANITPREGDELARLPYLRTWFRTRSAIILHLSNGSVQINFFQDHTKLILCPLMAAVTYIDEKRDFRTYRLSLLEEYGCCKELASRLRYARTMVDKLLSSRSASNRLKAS
# assay_name: qHTS for Inhibitors of PLK1-PDB (polo-like kinase 1 - polo-box domain): Primary Screen; also: nearly all actives have a fitted effect of over 65% in size; also: potency is read from the fitted curve at half-maximal effect
# settings: Plk1 PBD binding of FITC phosphopeptide, fluorescence polarization
Screen size: about 360,000 compounds; about 10,000 (2.8%) were called active. About 4% were inconclusive and are not listed. The list comes from a sample in which actives are over-represented; it also holds close analogues and randomly drawn compounds.

Enquiry: Can you look up the measured Potency of Cn1c(=O)[nH]c(=O)c2c1[nH]c(=S)n2Cc1ccccc1 for me?
Return: 23.8 µM (active)

Enquiry: If you can, please state the reported Potency value of C#CCOc1ccccc1/C=C1/C(=O)ON=C1C .
Return: 2.38 µM (active)

Enquiry: Potency for CC(=O)N1c2ccc(S(=O)(=O)NCCC(=O)N(C)C3CCCCC3)cc2CC1C (stereo not drawn) ?
Return: 2.99 µM (active)

Enquiry: Give its Potency value. Item: CC(=O)Nc1ccccc1NC(=O)c1cc(C)cc(C)c1
Return: 9.47 µM (active)

Enquiry: Which measured Potency value corresponds to CC(=O)NS(=O)(=O)c1ccc(NC(=O)/C=C/c2ccccc2Cl)cc1 ?
Return: 29.9 µM (active)

Enquiry: Which Potency is reported for this compound? CNc1ccc(SC#N)cc1
Return: 23.8 µM (active)

Enquiry: Would you mind telling me what Potency value was observed for COc1ccc2c(c1)C(=C(C#N)C#N)C(=O)N2CCc1ccccc1 ?
Return: 2.67 µM (active)

Enquiry: Using the record for O=C1/C(=C\c2ccc([N+](=O)[O-])cc2)CS(=O)(=O)C/C1=C/c1ccc([N+](=O)[O-])cc1 , report its Potency.
Return: 4.23 µM (active)

Enquiry: For the compound shown here, CC(C)N=C1CCCC1C(=S)SSC(=S)C1CCCC1=NC(C)C (stereo not drawn) , give the reported Potency.
Return: 9.47 µM (active)

Enquiry: Need Potency, item COc1ccc(CNC(=O)COC(=O)C2=Cc3ccccc3OC2)cc1
Return: 13.4 µM (active)

Enquiry: Would you mind telling me what Potency value was observed for Cc1cc(C)nc(NS(=O)(=O)c2ccc(N/C=C\C(=O)c3cccs3)cc2)n1 ?
Return: 26.7 µM (active)

Enquiry: Using the record for CCC(Oc1ccccc1)C(=O)NCc1cccnc1 (stereo not drawn) , report its Potency.
Return: 18.9 µM (active)

Enquiry: What does the record list as Potency for CCCCC(=O)NNC(=S)NC(=O)C(c1ccccc1)c1ccccc1 ?
Return: 26.7 µM (active)

Enquiry: Endpoint output: Potency of CCCc1[nH]nc2c1C(c1ccc(Br)s1)C(C#N)=C(N)O2 (stereo not drawn) . Value?
Return: 23.8 µM (active)

Enquiry: Suppose we examine the compound O=C(CCc1nnc(Cc2ccc3c(c2)OCO3)o1)NCCc1ccccc1Cl ; what Potency value has been reported?
Return: 21.2 µM (active)

Enquiry: Which Potency value belongs to Cn1nnnc1-c1cc(Cl)cc(Cl)c1 ?
Return: 26.7 µM (active)

Enquiry: Given CC1=C/C(=N\OS(=O)(=O)c2ccccc2)C=CC1=O , state its recorded Potency.
Return: 1.26 µM (active)

Enquiry: I'd like to know its Potency. The compound in question is O=C(O)c1ccccc1NC(=S)NC(NC(=O)c1ccccc1[N+](=O)[O-])C(Cl)(Cl)Cl (stereo not drawn)
Return: 26.7 µM (active)

Enquiry: Reported Potency, compound C=CCOc1ccc(/C=C2/C(=O)ON=C2C)cc1OCC : ____
Return: 1.89 µM (active)

Enquiry: // Potency lookup, key: Cc1cc(C)c(NC(=S)N2CCCC2C(=O)O)c(C)c1 (stereo not drawn)
Return: 6.7 µM (active)

Enquiry: Dear colleague, I am looking for the recorded Potency of the following compound: CC(C)c1nc(SCC(=O)Nc2cccc(C(=O)O)c2)c2c3c(sc2n1)CCCC3
Return: 42.3 µM (active)

Enquiry: Bench note: what Potency did CNS(=O)(=O)c1ccc(NC(=O)C2CC(=O)N(c3ccc(Cl)cc3)C2)cc1 (stereo not drawn) show?
Return: 26.7 µM (active)

Enquiry: I am curious: what Potency value has been reported for O=C(NC(=S)Nc1ccccc1C(=O)O)c1ccc(-c2ccc(Br)cc2)o1 ?
Return: 13.4 µM (active)

----------
Please respond with reported max response, negative = inhibition for every item in the list.
# target_or_system: Serine/threonine-protein kinase PLK1 (Homo sapiens) (UniProt P53350)
# assay_name: qHTS for Inhibitors of PLK1-PDB (polo-like kinase 1 - polo-box domain): Primary Screen; also: nearly all actives have a fitted effect of over 65% in size; as to max response, negative = inhibition: series mostly up to about 57 µM; % is scaled to controls: 0 for no effect and ±100 for the full control effect
# settings: Plk1 PBD binding of FITC phosphopeptide, fluorescence polarization
Out of some 360,000 compounds screened, about 10,000 (2.8%) were called active. Inconclusive results (about 4%) are left out. This excerpt belongs to a sample that is enriched for actives.
Numbers only; they are read as %.

Enquiry: Would you mind telling me what max response, negative = inhibition value was observed for CC(C)N1C(=O)c2ccccc2NC(=O)C1C(=O)NCc1cccs1 (configuration not stated) ?
Return: -1.29

Enquiry: Give its max response, negative = inhibition value. Item: Cc1ccc(CNC(=O)c2cccnc2Cl)cc1
Return: -17.3

Enquiry: State the recorded max response, negative = inhibition for this entry: Cc1ccc(-n2nc3c(=O)n(C(C)C(=O)NCc4ccc5c(c4)OCO5)nc(C)c3c2C)cc1 (configuration not stated)
Return: -18.3

Enquiry: max response, negative = inhibition lookup needed for CCCCCn1nnnc1C1c2ccccc2C(=O)N1Cc1ccco1 (configuration not stated) , thanks.
Return: -6.84

Enquiry: Item under review: COc1ccc(C(C)(O)c2nc(-c3ccc(C)c(C)c3)cs2)cc1 (configuration not stated) . Reported max response, negative = inhibition?
Return: -4.12

Enquiry: For the molecule shown here, Cn1nc(N)c2ncc(C(Cl)(Cl)Cl)nc21 , give the reported max response, negative = inhibition.
Return: -4.91

Enquiry: Given Cc1cccc(C)c1NC(=O)C(c1cccc2ccccc12)n1c(=O)c(-c2ccco2)nc2ccccc21 (configuration not stated) , state its recorded max response, negative = inhibition.
Return: -15.3

Enquiry: Recorded max response, negative = inhibition of CC(C)c1ccc(OCC(O)Cn2cnc3ccccc32)cc1 (configuration not stated) , please.
Return: -4.3

Enquiry: Request the reported max response, negative = inhibition associated with OC[C@@H]1CN(Cc2ccc(-c3ccccc3)cc2)C[C@H](n2cnc3c(NC4CCCC4)ncnc32)O1
Return: 4

Enquiry: What value of measured max response, negative = inhibition is listed for COc1ccc(C(=O)N2CCC(C(=O)Nc3cccc(C)c3)CC2)cc1OC ?
Return: -1.21

Enquiry: Return reported max response, negative = inhibition; argument: COc1ccc(/C=C2/C(=O)OCc3cc(OC)c(OC)cc32)c(OC)c1
Return: -13

Enquiry: I am curious: what max response, negative = inhibition value has been reported for CC(C)c1cc(C(=O)N(C)C2CCCN(Cc3ccccc3F)C2)n(C)n1 (configuration not stated) ?
Return: -5.2

Enquiry: Item CC1(C)OC(=O)C2=C(CC(c3ccccc3)OC2CCc2ccccc2)O1 (configuration not stated) has what recorded max response, negative = inhibition?
Return: -6.04

Enquiry: What max response, negative = inhibition value was documented for this molecule, COc1ccc(C2/C(=C(/O)c3ccccc3)C(=O)C(=O)N2C)c(OC)c1 (configuration not stated) ?
Return: 0.389

Enquiry: Name the recorded max response, negative = inhibition for O=C(Nc1ccccc1)C1CCN(C(=O)c2ccc(Br)cc2)CC1 .
Return: 1.93

Enquiry: Look up max response, negative = inhibition for this molecule: Cc1c(C)c2ccc(OCC(=O)N3CCN(c4cccc(Cl)c4)CC3)cc2oc1=O
Return: -4.22

Enquiry: Entry CCN(CC)S(=O)(=O)c1ccc(NC(=O)c2cnc(C)cn2)cc1 has what max response, negative = inhibition?
Return: 1.21

Enquiry: Report max response, negative = inhibition for Cc1nn(CC(=O)N2CCCCC2)c(=O)c2nn(-c3ccccc3)c(C)c12 please.
Return: -14.5

Enquiry: Which max response, negative = inhibition is listed for CCN(C(=O)Nc1cccc2ccccc12)c1ccccc1 ?
Return: -4

Enquiry: # get_value(readout='max response, negative = inhibition', item= CSCCC(NC(=O)COc1ccccc1)C(=O)N1CCN(c2cccc(C(F)(F)F)c2)CC1 (configuration not stated) )
Return: 10.8

Enquiry: Fill blank: measured max response, negative = inhibition of the molecule Cc1ccc(CN(C)C[C@@H]2OCc3cnnn3CCCC(=O)N([C@@H](C)CO)C[C@H]2C)cc1 is ____.
Return: -4.71

Enquiry: Give its max response, negative = inhibition value. Item: CCOc1ccccc1NC(=O)c1cc(S(=O)(=O)N2CCC3(CC2)OCCO3)ccc1F
Return: -1.47

----------
# target_or_system: Serine/threonine-protein kinase PLK1 (Homo sapiens) (UniProt P53350)
# assay_name: qHTS for Inhibitors of PLK1-PDB (polo-like kinase 1 - polo-box domain): Primary Screen; also: nearly all actives have a fitted effect of over 65% in size; as to max response, negative = inhibition: series mostly up to about 57 µM; % is scaled to controls: 0 for no effect and ±100 for the full control effect
# settings: Plk1 PBD binding of FITC phosphopeptide, fluorescence polarization
The whole screen tested about 360,000 compounds, of which about 10,000 (2.8%) were called active. Roughly 4% stayed inconclusive and do not appear here. Shown is part of a subset that was picked to be rich in actives.
measurement_label: max response, negative = inhibition (%)
Entry rule: numbers only, all in %.

Enquiry: max response, negative = inhibition for Cc1cc(C)c([N+](=O)[O-])cc1-c1ccc(/C=N/NC(=O)c2nonc2N)o1 ?
Return: 0.266

Enquiry: Requested field: max response, negative = inhibition. Item: Cc1nccn1-c1ccc(NC(=O)[C@H]2O[C@@H](n3ccc(=O)[nH]c3=O)[C@H](O)[C@@H]2O)cc1
Return: 0.546

Enquiry: Requested read-out: max response, negative = inhibition. Entry: CC(=O)NN=C(C)c1ccc(NC(=O)C2CC2)cc1
Return: -11.2

Enquiry: Which value of max response, negative = inhibition has been reported for O=C(NCc1ccc2c(c1)OCO2)c1cc(F)c(F)cc1Cl in the records?
Return: -7.37

Enquiry: Fill in the blank: the reported max response, negative = inhibition of CCc1oc(-c2ccc(OC)cc2)c(C(=O)OCCCCCO)c1C(C)OCCO (stereo unspecified) is ____.
Return: -3.22

Enquiry: Can you look up the measured max response, negative = inhibition of COc1ccc(NC(=O)C2Cc3c(-c4ccc(Cl)cc4)ccnc3O2)cc1 (stereo unspecified) for me?
Return: 1.68

Enquiry: Returns the measured max response, negative = inhibition for the input compound. Input: CNS(=O)(=O)c1ccc2c(c1)[nH]c(=S)n2C
Return: -13.6

Enquiry: Query (compound): C=C1C(=O)OC2C1CCC(C)=CCCC1(C)OC21 (stereo unspecified) ; field requested: max response, negative = inhibition
Return: -24.4

Enquiry: Look at this compound and give its reported max response, negative = inhibition. COc1ccc(OC)c(S(=O)(=O)n2c([N+](=O)[O-])cnc2C)c1
Return: -9.42

Enquiry: Consider the compound shown here: CCOC(=O)[C@]12CCCC=C1N(Cc1ccc(Cl)cc1Cl)C(=O)[C@H](CC(=O)N1CCCCC1)C2 What is its recorded max response, negative = inhibition?
Return: -4.73

Enquiry: Query (compound): COc1cccc(CSc2nc3nc(C)cc(C)n3n2)c1 ; field requested: max response, negative = inhibition
Return: -14.8

Enquiry: # get_value(readout='max response, negative = inhibition', item= COc1cccc(NC(=O)CN2CCN(CC(=O)Nc3ccccc3Cl)CC2)c1 )
Return: -1.84

Enquiry: What max response, negative = inhibition value was documented for this compound, O=C(Nc1ccc(Cl)cc1)c1csc([C@@H]2O[C@H](CO)[C@H](O)[C@H](O)[C@H]2O)n1 ?
Return: 2.4

Enquiry: Which max response, negative = inhibition is listed for COC(=O)c1ccc(CN2C(=O)C(Cc3ccccc3)ON=C2c2ncccc2C)o1 (stereo unspecified) ?
Return: 5.05

Enquiry: For the compound shown here, CC1(C(=O)NS(=O)(=O)c2cccc(OC(F)F)c2)CCN1C(=O)COc1ccc(Cl)cc1 (stereo unspecified) , give the reported max response, negative = inhibition.
Return: 3.32

Enquiry: Param item = Cc1ccc(-c2ccc(C3=CC(=O)CC(C)(C)C3=O)cc2)cc1 ; retrieve measured max response, negative = inhibition.
Return: -0.955

Enquiry: Requested field: max response, negative = inhibition. Item: COc1cc(OC)c(C(=O)NCc2ccc3c(c2)OCO3)cc1OC
Return: -15

Enquiry: Using the record for CC(C)Cc1ccc(-c2cc3nc(NCc4cccc(Cl)c4)ccn3n2)cc1 , report its max response, negative = inhibition.
Return: -0.174

Enquiry: What value of max response, negative = inhibition has been reported for the following compound? Cc1ccc2nc(SCc3nnc(-c4ccccc4[N+](=O)[O-])o3)c(C#N)cc2c1
Return: -9

Enquiry: Could you tell me which max response, negative = inhibition is on file for CCN(CCN(C)C)C(=O)c1ccc2nc(C)c(N(C)C(=O)CCc3ccccc3)n2c1 ?
Return: 2.39

Enquiry: I have this compound here, Cc1ccc(C(=O)Nc2nc(N)n(-c3ccccc3)n2)cc1 , and I need its recorded max response, negative = inhibition.
Return: -8.25
